Data provenance: PubChem BioAssay AID1159580

I'd appreciate it if you could supply normalized growth values for the items below.
# experiment description: chemical genetic growth profiling, strain panel (AID 1159580);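 further: tested at 20 µM; growth read once vehicle control cultures reached saturation at 30 °C; 1 = growth at the plate median or of vehicle wells; lower values mean less growth of the strain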
# test settings: S. cerevisiae deletion strains, growth OD, locus YBR021W, strain FUR4, stronger effect = lower value
Hit rate of the full screen: of about 5,500 compounds, about 2,000 (36%) were called active. About 18% were inconclusive and are not listed. Some of the results follow.
One number for each entry.

Example entries and their recorded answers appear below.
1. NC1=NCCN1CC(=O)O; 1
2. COc1ccc([C@@H]2CC(=O)c3c(O)cc(O[C@@H]4O[C@H](CO[C@H]5O[C@@H](C)[C@H](O)[C@@H](O)[C@H]5O)[C@@H](O)[C@H](O)[C@H]4O)cc3O2)cc1O; 0.988
3. CC(=O)OC1CCC2(C)C(CC(OC(C)=O)C3(C)C4=CC(=O)OC(c5ccoc5)C4(C)CCC23)C1(C)C (configuration not stated); 1.02
4. OC[C@H]1O[C@@](CO)(O[C@@H]2O[C@H](CO)[C@@H](O)[C@H](O)[C@H]2O)[C@@H](O[C@@H]2O[C@H](CO)[C@@H](O)[C@H](O)[C@H]2O)[C@@H]1O; 1.01
5. CC(=O)O[C@@H]1CC2C(C)(C)[C@H](O)C=C[C@]2(C)C2CC[C@]3(C)C(=CC(=O)O[C@H]3c3ccoc3)[C@@]21C (some centres not stated); 0.987
6. CC(=O)O[C@H]1CC[C@@]2(C)C(C[C@@H](OC(C)=O)[C@@]3(C)C4=CC(=O)O[C@@H](c5ccoc5)[C@]4(C)CCC23)C1(C)C (some centres not stated); 0.981

Proceed to the following item.
-- ask Look at this molecule and give its reported normalized growth. `OC[C@H]1O[C@@H](O[C@H]2[C@H](O)[C@@H](O)[C@@H](O)O[C@@H]2CO)[C@H](O)[C@@H](O)[C@@H]1O`
-- reply 1.04
